Recorded values, source ChEMBL document CHEMBL1124800.

Organism: Homo sapiens
TEST_DESCRIPTION: In vitro inhibition of aggregation of human platelet rich plasma induced by arachidonic acid
Type: functional
MEASUREMENT_CONDITIONS: read-out: I50
pIC50: −log10 of the molar value.
OBSERVABLE: pIC50

1 = C[C@@H](c1ccccc1)[C@H](O)/C=C/[C@@H]1C2CCC(O2)[C@@H]1C/C=C\COCC(=O)O (stereo partly drawn)
2 = CC(C/C=C\C[C@H]1C2CCC(O2)[C@H]1/C=C/[C@@H](O)[C@@H](C)c1ccccc1)CC(=O)O (stereo partly drawn)
3 = O=C(O)CCC/C=C\CC1C2CCC(O2)C1/C=C/[C@@H](O)CCc1ccccc1 (stereo partly drawn)
4 = O=C(O)CCC/C=C\CC1C2CCC(O2)C1/C=C/[C@@H](O)C1CCCCC1 (stereo partly drawn)
5 = C[C@@H](c1ccccc1)[C@H](O)/C=C/[C@@H]1C2CCC(O2)[C@@H]1CC/C=C/CCC(=O)O (stereo partly drawn)
[ask] Order the entries by their reported pIC50, beginning at the minimum. Labels, ranked as asked.
[reply] 5, 2, 1, 3, 4
(5: 4.60, 2: 4.92, 1: 5.47, 3: 5.92, 4: 6.40)

1 = C[C@@H](c1ccccc1)[C@H](O)/C=C/[C@@H]1C2CCC(O2)[C@@H]1C/C=C\CCC(C)(C)C(=O)O (stereo partly drawn)
2 = C[C@@H](c1ccc(O)cc1)[C@H](O)/C=C/C1C2CCC(O2)C1C/C=C\CCCC(=O)O (stereo partly drawn)
3 = CCCCC[C@H](O)/C=C/C1C2CCC(O2)C1C/C=C\CCCC(=O)O (stereo partly drawn)
[ask] Rank entries according to their pIC50, from the largest number down. Would you mind listing the labels in the order requested?
[reply] 2, 3, 1
